IC50 by entry:
- Target Entity: α4β1 integrin (Homo sapiens (Human), UniProt P05556+P13612)
- Sequence (P13612 34-1032): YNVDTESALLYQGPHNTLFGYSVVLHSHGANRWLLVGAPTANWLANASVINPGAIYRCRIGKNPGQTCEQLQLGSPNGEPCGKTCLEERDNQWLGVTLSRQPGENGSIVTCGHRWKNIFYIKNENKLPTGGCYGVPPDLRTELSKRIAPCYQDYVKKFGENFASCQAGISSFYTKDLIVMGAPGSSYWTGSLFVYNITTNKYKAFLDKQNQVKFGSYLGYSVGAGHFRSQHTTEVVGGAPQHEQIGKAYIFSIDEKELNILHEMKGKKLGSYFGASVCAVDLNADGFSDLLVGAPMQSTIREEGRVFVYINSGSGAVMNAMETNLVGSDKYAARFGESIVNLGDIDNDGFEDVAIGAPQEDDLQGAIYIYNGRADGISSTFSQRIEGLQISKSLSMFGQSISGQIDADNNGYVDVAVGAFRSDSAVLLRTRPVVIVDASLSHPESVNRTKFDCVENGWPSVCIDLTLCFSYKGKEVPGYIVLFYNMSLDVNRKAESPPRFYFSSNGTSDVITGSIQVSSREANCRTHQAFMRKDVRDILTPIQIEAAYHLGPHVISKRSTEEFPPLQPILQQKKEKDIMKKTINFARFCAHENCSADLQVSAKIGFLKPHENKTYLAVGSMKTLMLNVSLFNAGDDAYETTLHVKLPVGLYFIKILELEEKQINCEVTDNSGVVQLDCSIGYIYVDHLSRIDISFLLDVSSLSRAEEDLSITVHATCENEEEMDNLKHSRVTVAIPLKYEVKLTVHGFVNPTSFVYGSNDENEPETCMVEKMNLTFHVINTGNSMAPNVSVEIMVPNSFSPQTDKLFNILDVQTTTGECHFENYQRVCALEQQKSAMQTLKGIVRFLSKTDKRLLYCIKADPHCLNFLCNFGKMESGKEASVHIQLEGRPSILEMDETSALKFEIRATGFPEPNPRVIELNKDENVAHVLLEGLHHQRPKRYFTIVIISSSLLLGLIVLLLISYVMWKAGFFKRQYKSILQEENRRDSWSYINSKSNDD
- Sequence (P05556 21-798): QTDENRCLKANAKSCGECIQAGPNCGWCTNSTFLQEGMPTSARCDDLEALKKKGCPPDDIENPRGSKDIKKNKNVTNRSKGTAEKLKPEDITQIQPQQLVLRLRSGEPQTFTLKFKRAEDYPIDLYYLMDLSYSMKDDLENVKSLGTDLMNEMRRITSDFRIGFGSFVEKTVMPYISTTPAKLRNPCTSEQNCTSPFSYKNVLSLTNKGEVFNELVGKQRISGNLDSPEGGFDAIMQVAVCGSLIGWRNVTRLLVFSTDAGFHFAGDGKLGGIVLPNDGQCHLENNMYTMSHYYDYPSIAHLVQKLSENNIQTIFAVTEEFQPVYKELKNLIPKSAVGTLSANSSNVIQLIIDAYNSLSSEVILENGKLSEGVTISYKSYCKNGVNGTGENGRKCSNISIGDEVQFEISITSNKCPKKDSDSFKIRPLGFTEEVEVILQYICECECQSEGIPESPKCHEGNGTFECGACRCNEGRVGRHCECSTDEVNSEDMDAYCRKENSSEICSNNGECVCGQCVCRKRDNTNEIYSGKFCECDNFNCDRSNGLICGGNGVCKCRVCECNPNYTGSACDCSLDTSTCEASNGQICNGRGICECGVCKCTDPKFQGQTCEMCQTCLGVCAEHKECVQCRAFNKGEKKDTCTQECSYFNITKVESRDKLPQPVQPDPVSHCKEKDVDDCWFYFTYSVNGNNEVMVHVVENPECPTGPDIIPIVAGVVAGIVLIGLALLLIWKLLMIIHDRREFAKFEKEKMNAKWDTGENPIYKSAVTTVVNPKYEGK
- Measurement Notes: Integrin Adhesion Assay: Protocol 5 (VCAM-coated plate, RPMI-8866 cells with stable LOF mutation of the ITGB7 gene)
- Type: cell-based
- Applied Conditions: Protocol 5; RPMI-8866 cells with LOF mutation of ITGB7, VCAM; read-out: Mean IC50 α4β1 KO

Look over these answered cases.
1. Cn1c(=O)c(-c2cccc3c(C[C@H](NC(=O)C4(C(F)(F)F)CCCN(CC5COC5)C4)C(=O)O)cccc23)c(C(F)(F)F)c2ccccc21 (stereo partly drawn) [Compound 1049] : > 1000 nM
2. O=C(O)[C@H](Cc1cccc2c(-c3ncc(CN4CCOCC4)c4ccccc34)cccc12)NC(=O)C1(C(F)(F)F)CCN(CC(F)F)CC1 [Compound 878] : 100 to 1000 nM

Lookup: Given the molecule O=C(O)[C@H](Cc1cccc2c(-c3ccc(CN4CCCC(F)C4)c4ccncc34)cccc12)NC(=O)C1(C(F)(F)F)CCN(CC(F)(F)F)CC1 (stereo partly drawn) [Compound 989] , write its reported IC50.
Found: > 1000 nM

Lookup: Tell me IC50 reported for COc1c(CN2CCCCC2)ccc(OC(F)(F)F)c1-c1cccc2c(C[C@H](NC(=O)c3c(C)cccc3F)C(=O)O)cccc12 [Compound 704]
Found: > 1000 nM

Lookup: Quickly give me recorded IC50 for CC[C@H]1CCCN1Cc1cnc(-c2cccc3c(C[C@H](NC(=O)C4(C(F)(F)F)CCN(CC(F)(F)F)CC4)C(=O)O)cccc23)c2ccccc12 [Compound 933]
Found: 100 to 1000 nM
